Test system: PLC-PRF-5 cells
Assay: Inhibition of proliferation of PLC-PRF-5 cells (ATPlite)
Format: cell-based
Details: Homo sapiens, PLC-PRF-5, PLC-PRF-5 cells; read-out: PLC-PRF-5 cell proliferation IC50
Property: pIC50; scope: individual compounds
pIC50 field: float, defined as -log10 of concentration (mol/L).

| COMPOUND | TARGET_SYSTEM | REPORTED_RESULT |
| --- | --- | --- |
| CC(F)(F)c1cc(NC(=O)Nc2ccc(Oc3ccnc(NC(=O)C4CC4)c3)cc2F)ccc1Cl | PLC-PRF-5 cells | 6.20 |

Returns the measured pIC50 for the input compound. Input: `CC(F)(F)c1ccnc(NC(=O)Nc2ccc(Oc3ccnc(NC(=O)C4CC4)c3)cc2F)c1`
6.27

Returns the measured pIC50 for the input compound. Input: `Cc1cc(Oc2cc(NC(=O)C3CC3)ncn2)ccc1NC(=O)Nc1ccc(F)c(C(C)(F)F)c1`
4.69

Returns the measured pIC50 for the input compound. Input: `O=C(Nc1ccc(F)c(C(F)(F)F)c1)Nc1ccc(Oc2cc(NC(=O)C3CC3)ncn2)cc1Cl`
5.16

Returns the measured pIC50 for the input compound. Input: `Cc1cc(NC(=O)Nc2ccc(Cl)c(C(C)(F)F)c2)cc(Oc2cc(NC(=O)C3CC3)ncn2)c1`
4.68

Returns the measured pIC50 for the input compound. Input: `O=C(Nc1cc(F)cc(C(F)(F)F)c1)Nc1ccc(Oc2cc(NC(=O)C3CC3)ncn2)cc1Cl`
5.55

Returns the measured pIC50 for the input compound. Input: `N#Cc1cc(NC(=O)Nc2ccc(Cl)c(C(F)(F)F)c2)ccc1Oc1cc(NC(=O)C2CC2)ncn1`
5.27

Returns the measured pIC50 for the input compound. Input: CC(c1cc(NC(=O)Nc2ccc(Oc3ccnc(NC(=O)C4CC4)c3)c(F)c2)cc(C(F)(F)F)c1)N1CCNCC1 (centres unmarked)
6.63
